- Method notes: yeast display, Sf9 membrane polyspecificity reagent, FACS + sequencing; frameworks hold sequencing errors
Metric name: polyreactivity (PSR sort gate)

Reference set, count: 4
QVQLVESGGGLVQAGGILRLSCAASGLIFANNAMGWYRQAPGKERELVAAITGGGDGTYYADYVKGRFTISRDNAKNNVYFQMNSLKPEDTAVYYCAADYKYLGSEYCYWGQGTQVTVSS    low polyreactivity
QVQLVESGGALVQAGGSLRLSCAASGFTFSAYAMGWYRQAPVKEREMVASISRGGITNYADSVKGRFTISRDNAKNTVYLQMNSLQPEDTAFYYCAVDYSFRYDYVQRYYYWGQGTQVSVSS    high polyreactivity
QVQLVESGGGLVQAGGSLRLSCAASGITFVRYAMGWYRQAPGKERELVAAINSDGNTYYADSVKGRFTISRDTAKNTVYLQLNSLKPEDTACYYCAAGQGAGVDYWGQGTQVTVSS    high polyreactivity
QVQLVESGGGLVQAGGSLRLSCAASGSSFPRYAMAWYTPAPGKERELVAAISSGGSTYYADSVKGRFTISRDNAKNTVYLQMNSLKPEDTAVYYCTARRSRSRYDYWGQVTQVTVSS    high polyreactivity

Could you now consider this next sequence?
Problem: Which polyreactivity (PSR sort gate) value belongs to `QVQLVESGGGLVQAGGSLRLSCAASGRIFGYNAMGWSRQAPGKERELFAAITTSGGSTYYADSVKGRFTISRDNAKNTVYLQMNSLKPEDTAVYYCARDSLQVFYPYASDDYWGQGTQVTVSS` ?
Result: low polyreactivity

---

- Method notes: yeast display, Sf9 membrane polyspecificity reagent, FACS + sequencing; frameworks hold sequencing errors
Metric name: polyreactivity (PSR sort gate)

QVQLVESGGGLVQAGGSLRLSCAASGRTSWRYAMGWYRQAPGKERELVAANNRGGSTYYADSVKGRFTISRDNAKNTVYLQMNSLKPEDTAVYYCAVDTPLEYYHQQAYVAGEYWGQGTQVTVSS    low polyreactivity
QVQLVESGGGLVHAGGSLRLSCAASGFIFKRYPMGWNRPAHGKERELVAVITRSGGSTYYADSVKGRFTISRDNAKNTVYLQMNSLKPEDTAVYYCAAQGLLKFYWGQGTQVTVSS    high polyreactivity
QVQLVESGGGLVQAGGSLRLSCAASGLIFDPNTMGWYRQAPGKERELVAAISSGGDTNYADSVKGRFTISRDNAKNTVYLQMNSQKPEDTAVYYCATDIRFHDPSEYEGVHFEYWGQGTQVTVSS    low polyreactivity
QVQLVESGGGLVQAGCSLRLSCAASGRIFRGNAMGWYRQAPGKERELVARITGNDGDTYYADSVKGRFTISRDNAKNTVYLQMNSLNPEDTAVYYCATDTSSYRRRYYYWGQGTQVTVSS    low polyreactivity

Problem: Which polyreactivity (PSR sort gate) value belongs to `QVQLVESGGGLVQAGGSLRLSCAASGSTFAYYAMGWYRQAPGKERELVAAISYSGGITYYADSVKGRFTISRDNAKNTVYLQMNSLKPEDTAVYYCNKLFAQEFDYWGQGTQVTVSS` ?
Result: high polyreactivity

Problem: Which polyreactivity (PSR sort gate) value belongs to `QVQLGESGGGLVQAGGSLRLSCAASGNIFYRYAMGWYRQAPGKERELVAAITSDGSTYYADSVKGRFTISRDNAKNTVYLQMNSLKPEDTAVYYCAARRGTGSYSYRYPYGYDYWGQGTQVTVSS` ?
Result: low polyreactivity

Problem: Which polyreactivity (PSR sort gate) value belongs to `QVQLVESGGGLVQAGGSLRLICAASGIIFSDYAMGWYRQAPGKERELVAAITGGGSTYYADSVKGRFTISRDNAKNTVYLQMNSLKPEDTAVYYCNADTWGFTYYYWGQGTQVTVSS` ?
Result: low polyreactivity

Problem: Which polyreactivity (PSR sort gate) value belongs to `QVQLVESGGGLVQAGGSLRLSCAASGSIFVYNAMGWYRQAPGKERELVAAISQRGGSTYYADSVKGRFTISRDNAKNTVYLQMNSLKPEDTAVYYCAAAPGDSGDDYWGQGTQVTVSS` ?
Result: low polyreactivity

Problem: Which polyreactivity (PSR sort gate) value belongs to `QVQLVESGGGLVQAGGTLRLSCAASGITFHRYDMGWYRQAPGKERELVADITWSGGSTYYADSVKGRFTISRDNAKNTVYLQMNSLKPEDTAVYYCAADASTYTYTPYDNWGQGTQVTVSS` ?
Result: low polyreactivity

Problem: Which polyreactivity (PSR sort gate) value belongs to `QVQLVESGGGLVQAGGSLRLSCAASGRIIYIYAMGWYRQAPGKERELVAAITASSGSTNYADSVKGRFTISRDNAKNTVYLQLNSLKPEDTAVYYCAAAPSRTLLRQSKYYYWGQGTQVTVSS` ?
Result: low polyreactivity

Problem: Which polyreactivity (PSR sort gate) value belongs to `QFQLVESGGGLVQEGGSLRISCAASGSIFNEYAMGWYRQAPGKERELVAAISTSGDITYYADSVKGRFTISLDTAKNTVYLQMNSLKPEDTAVYYCAAKYSLLRQYNRLDYWGQGTQVTVSS` ?
Result: low polyreactivity
